Values from paper PMC12130509

# assay-target: SPs0871 (Streptococcus pyogenes)
# Sequence (A0A0H2UUQ6 entry or part of it): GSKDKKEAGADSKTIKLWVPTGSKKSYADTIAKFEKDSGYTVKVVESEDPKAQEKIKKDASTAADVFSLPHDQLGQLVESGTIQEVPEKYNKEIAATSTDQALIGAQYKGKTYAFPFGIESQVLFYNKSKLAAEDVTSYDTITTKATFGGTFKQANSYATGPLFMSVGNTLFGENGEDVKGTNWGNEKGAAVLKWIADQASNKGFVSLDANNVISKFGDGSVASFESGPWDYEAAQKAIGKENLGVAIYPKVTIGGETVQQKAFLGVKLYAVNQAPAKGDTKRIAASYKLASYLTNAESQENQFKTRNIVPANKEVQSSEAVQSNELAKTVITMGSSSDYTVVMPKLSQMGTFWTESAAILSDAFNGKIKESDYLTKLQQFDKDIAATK
# assay-text: MST binding analysis
# settings: 100 nM SPs0871; read-out: KD values calculated by MST analysis
Reported pKd values are given for each entry in this list.
Quick note: pKd values are minus log10 of concentrations in mol/L.

Example cases with answers are listed next.
CCC(=O)Nc1cccc(-c2nnc3c4ccccc4c(C)nn23)c1 [95186c] = 4.14
Cc1nn2c(-c3cccc(NC(=O)CN4CCOCC4)c3)nnc2c2ccccc12 [95186b] = 4.17

Proceeding to the next compound to report its pKd.
Query block: Give its pKd value. Item: Cc1nn2c(-c3cccc(NC(=O)CN4CCCCC4)c3)nnc2c2ccccc12
Result block: 4.35
